tested_on: T1, Human TIGIT protein with HIS tag (human, UniProt Q495A1 22-141)
T1 construct: A soluble analyte is probably only the extracellular part; also called human TIGIT recombinant protein; not shown: HIS tag
T1 sequence: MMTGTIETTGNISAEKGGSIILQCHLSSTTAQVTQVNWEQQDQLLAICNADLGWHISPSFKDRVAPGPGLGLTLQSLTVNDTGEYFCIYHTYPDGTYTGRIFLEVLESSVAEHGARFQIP
test_protocol: SPR Biacore T200; antibody Fc-captured, TIGIT-His analyte
Listed binders paired with reported koff
# unit: s⁻¹ | format: bare number

Recorded results for 2 binders are shown here.
>  <binder>
16F10H12C11 (antibody, V domains shown, Mouse monoclonal antibody; also called mouse anti-human TIGIT monoclonal antibody 16F10H12C11) VH: EVLLQQSGPELVKPGASVKIPCKASGYTFTDYNIDWVKQSHGKSLEWIGDINPNTGGTIYNQKFKGKATLTVDKSSSTAYMELRSLTSEDTAVYYCARRWLLLVYAVDYWGQGTSVTVSS VL: QIVLTQSPAIMSASPGEKVTISCSASSSVTYMYWYQQKAGSSPKPWIYRTSNLASGVPARFGGSGSGTSYSLTISSMEAEDAATYYCQQYHSFPPTFGGGTKLEIK

>  <endpoint_unit>
s⁻¹

>  <number>
1.2

$$$$
>  <binder>
128E3G7F5 (antibody, V domains shown, Mouse monoclonal antibody; also called mouse anti-human TIGIT monoclonal antibody 128E3G7F5) VH: EVLLQQSGPELVKTGASVKISCKASGYSFTAYYMHWVKQSHGKSLEWIGYISCYNGATTYNQKFKGKATFTVDTSSTTAYMQFNSLTSEDSAVYYCARRVYYGYDEALVYWGQGTSVTVSS VL: DIVMTQSPSSLSVSAGEKVTMTCKSSQSLLNSGNQKNYLAWYQQKPGQPPKLLIYGASTRGSGVPDRFTGSGSGTDFTLTISSVQAEDLAVYYCQNDHSYPYTFGGGTKLEIK

>  <endpoint_unit>
s⁻¹

>  <number>
0.008

$$$$

Okay, now this binder:
## Input Which measured koff value corresponds to 8F2D8E7 (antibody, V domains shown, Mouse monoclonal antibody; also called mouse anti-human TIGIT monoclonal antibody 8F2D8E7) VH: QVQLQQSGAELVKPGASVKLSCKTSGYTFTSYWIQWIKQRPGQGLGWIGEIFPGTGTTYYNEKFKGKATLTIDTSSSTAYMQLSSLTSEDSAVYSCARSRDGKVVDYWGQGTSVTVSS VL: DVQMTQTTSSLSASLGDRVTISCRASQDISNFLNWYQQRPDGTVKLLIYYTSKLHSGVPSRFSGSGSGTDYSLTIRNLEKEDIATYFCQQGNTPPYTFGGGTKLEIK ?
## Output 0.0033
